B1: Pistol ribozyme (parent)
chain: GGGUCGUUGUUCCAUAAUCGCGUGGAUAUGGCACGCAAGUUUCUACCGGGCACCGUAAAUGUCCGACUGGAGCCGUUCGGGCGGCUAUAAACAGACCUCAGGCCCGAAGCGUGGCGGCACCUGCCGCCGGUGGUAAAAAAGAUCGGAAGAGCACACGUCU

variants of: B1; test: aptazyme ON/OFF ratio, guanine; higher = stronger switching; co-transcriptional cleavage with and without guanine
Quick reference for aptazyme ON/OFF ratio among some variants
// no unit, no text: just the number

| mutation | aptazyme ON/OFF ratio |
| --- | --- |
| U7C U8C G9A U10C U11C C12G C13A | 1.5 |
| G9C U10G U11A C12A | 1.31 |
| U7C U8G G9C U10C C12U | 1.27 |
| U7G G9A U10G U11A C12U | 1.07 |

Query: Entry U7G U8A U10C U11G C13G needs its aptazyme ON/OFF ratio filled in; supply it.
Result: 1.26

Query: Identify the reported aptazyme ON/OFF ratio for the following entry. U7G G9A U10A U11G C13U
Result: 1.14

Query: State, in one line, measured aptazyme ON/OFF ratio of G9C U10C U11G C12A
Result: 1.03

Query: Give the measured aptazyme ON/OFF ratio for U7C G9A U10G U11C C12G C13A
Result: 1.19

Query: Return aptazyme ON/OFF ratio (reported value) for this variant: U7C G9A U10A U11G C12G
Result: 1.15

Query: Find the measured aptazyme ON/OFF ratio of U7A U8C G9C C12U C13A and report it.
Result: 1.08

Query: Annotate the variant U7A U8A G9C U10C U11G C13A with its measured aptazyme ON/OFF ratio.
Result: 1.06

Query: Output aptazyme ON/OFF ratio of U7C G9C U10A U11G C13U
Result: 1.09

Query: Entry U8C U11A C13U needs its aptazyme ON/OFF ratio filled in; supply it.
Result: 1.11

Query: Using known records, supply aptazyme ON/OFF ratio for U7G U8C G9A U11G C12U C13A
Result: 1.11

Query: State, in one line, measured aptazyme ON/OFF ratio of U10C U11A C12U C13U
Result: 1.19

Query: Supply reported aptazyme ON/OFF ratio belonging to this variant: U7G U10A U11A C12G
Result: 1.1

Query: Please give measured aptazyme ON/OFF ratio of the following entry: U7G U8A G9C
Result: 1.12

Query: Identify measured aptazyme ON/OFF ratio corresponding to U7A U11C C12A C13A
Result: 1.35
